System: WHIM30 (cells of a triple-negative basal-like breast cancer xenograft)
Assay Notes: cell viability of combination (% of vehicle); higher = less cytotoxic
Settings: 1 µM; 72 h; partner dose: 10 nM
Assign cell viability of combination to each entry below.
Please state the value as a number alone, without comment.

**Query** What does the data say about its cell viability of combination? Entry: CC1CC(=O)NN=C1c1ccc(NN=C(C#N)C#N)cc1 (configuration not stated) [Levosimendan] + CC(C)C[C@H](NC(=O)[C@H](CCc1ccccc1)NC(=O)CN1CCOCC1)C(=O)N[C@@H](Cc1ccccc1)C(=O)N[C@@H](CC(C)C)C(=O)[C@@]1(C)CO1 [Carfilzomib]
**Result** 21.5

**Query** What does the data say about its cell viability of combination? Entry: Cc1ccc(C(=O)N(CCCN)C(c2nc3cc(Cl)ccc3c(=O)n2Cc2ccccc2)C(C)C)cc1 (configuration not stated) + CC(C)C[C@H](NC(=O)[C@H](CCc1ccccc1)NC(=O)CN1CCOCC1)C(=O)N[C@@H](Cc1ccccc1)C(=O)N[C@@H](CC(C)C)C(=O)[C@@]1(C)CO1 [Carfilzomib]
**Result** 19.6

**Query** What does the data say about its cell viability of combination? Entry: CC(C)C(=O)OCC(=O)[C@@]12O[C@H](C3CCCCC3)O[C@@H]1C[C@H]1[C@@H]3CCC4=CC(=O)C=C[C@]4(C)[C@H]3[C@@H](O)C[C@@]12C [Ciclesonide] + CC(C)C[C@H](NC(=O)[C@H](CCc1ccccc1)NC(=O)CN1CCOCC1)C(=O)N[C@@H](Cc1ccccc1)C(=O)N[C@@H](CC(C)C)C(=O)[C@@]1(C)CO1 [Carfilzomib]
**Result** 31.2

**Query** What does the data say about its cell viability of combination? Entry: CC1(COc2ccc3c(c2)ncn3-c2ccc3cccc(N4CCC(N)CC4)c3n2)COC1 + CC(C)C[C@H](NC(=O)[C@H](CCc1ccccc1)NC(=O)CN1CCOCC1)C(=O)N[C@@H](Cc1ccccc1)C(=O)N[C@@H](CC(C)C)C(=O)[C@@]1(C)CO1 [Carfilzomib]
**Result** 64.3

**Query** What does the data say about its cell viability of combination? Entry: CCCCc1oc2ccccc2c1C(=O)c1cc(I)c(OCCN(CC)CC)c(I)c1.Cl [Amiodarone HCl] + CC(C)C[C@H](NC(=O)[C@H](CCc1ccccc1)NC(=O)CN1CCOCC1)C(=O)N[C@@H](Cc1ccccc1)C(=O)N[C@@H](CC(C)C)C(=O)[C@@]1(C)CO1 [Carfilzomib]
**Result** 20.3

**Query** What does the data say about its cell viability of combination? Entry: CN(C)CC=CC(=O)Nc1cc2c(Nc3ccc(F)c(Cl)c3)ncnc2cc1OC1CCOC1.O=C(O)C=CC(=O)O.O=C(O)C=CC(=O)O (configuration not stated) [Afatinib dimaleate] + CC(C)C[C@H](NC(=O)[C@H](CCc1ccccc1)NC(=O)CN1CCOCC1)C(=O)N[C@@H](Cc1ccccc1)C(=O)N[C@@H](CC(C)C)C(=O)[C@@]1(C)CO1 [Carfilzomib]
**Result** 12.9

**Query** What does the data say about its cell viability of combination? Entry: CN1CCN(CCOc2cc(OC3CCOCC3)c3c(Nc4c(Cl)ccc5c4OCO5)ncnc3c2)CC1 [Saracatinib (AZD0530)] + CC(C)C[C@H](NC(=O)[C@H](CCc1ccccc1)NC(=O)CN1CCOCC1)C(=O)N[C@@H](Cc1ccccc1)C(=O)N[C@@H](CC(C)C)C(=O)[C@@]1(C)CO1 [Carfilzomib]
**Result** 21.1

Cited source: the supplement of paper PMC6992640
